Provide the reported inhibition of each item.
Target: Receptor tyrosine-protein kinase erbB-2 (Homo sapiens) (UniProt P04626)
Sequence (P04626 whole entry): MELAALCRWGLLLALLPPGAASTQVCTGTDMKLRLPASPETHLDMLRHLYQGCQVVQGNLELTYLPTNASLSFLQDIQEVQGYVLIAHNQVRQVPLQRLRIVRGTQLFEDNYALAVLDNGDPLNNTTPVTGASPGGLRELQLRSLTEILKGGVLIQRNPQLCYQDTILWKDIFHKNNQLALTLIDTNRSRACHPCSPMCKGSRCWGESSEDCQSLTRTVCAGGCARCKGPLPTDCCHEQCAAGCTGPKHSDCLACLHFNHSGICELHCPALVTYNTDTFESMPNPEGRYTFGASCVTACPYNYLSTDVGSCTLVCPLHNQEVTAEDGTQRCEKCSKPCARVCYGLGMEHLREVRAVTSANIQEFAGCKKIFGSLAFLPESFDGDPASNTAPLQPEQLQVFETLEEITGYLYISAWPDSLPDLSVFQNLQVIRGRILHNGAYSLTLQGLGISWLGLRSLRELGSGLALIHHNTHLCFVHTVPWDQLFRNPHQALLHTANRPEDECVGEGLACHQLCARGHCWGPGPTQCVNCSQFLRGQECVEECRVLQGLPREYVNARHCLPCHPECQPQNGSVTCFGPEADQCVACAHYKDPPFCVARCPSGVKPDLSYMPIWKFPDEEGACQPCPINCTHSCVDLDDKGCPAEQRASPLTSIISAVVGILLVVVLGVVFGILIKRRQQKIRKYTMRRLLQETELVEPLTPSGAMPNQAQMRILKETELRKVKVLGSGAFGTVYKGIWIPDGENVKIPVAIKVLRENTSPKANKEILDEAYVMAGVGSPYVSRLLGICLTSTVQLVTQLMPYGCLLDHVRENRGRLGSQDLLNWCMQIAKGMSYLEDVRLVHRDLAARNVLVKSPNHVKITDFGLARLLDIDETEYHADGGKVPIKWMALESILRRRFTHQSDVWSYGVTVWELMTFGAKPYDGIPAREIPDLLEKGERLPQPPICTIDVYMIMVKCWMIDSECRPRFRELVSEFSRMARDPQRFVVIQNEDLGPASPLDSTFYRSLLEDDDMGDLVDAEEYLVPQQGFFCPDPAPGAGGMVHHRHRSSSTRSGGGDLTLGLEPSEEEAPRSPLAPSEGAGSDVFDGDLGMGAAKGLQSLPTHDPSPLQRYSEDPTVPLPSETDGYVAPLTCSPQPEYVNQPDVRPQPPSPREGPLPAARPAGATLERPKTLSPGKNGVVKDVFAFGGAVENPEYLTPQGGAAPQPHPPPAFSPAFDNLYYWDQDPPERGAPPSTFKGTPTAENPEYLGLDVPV
Conditions: at 1 µM
Description: GSK_PKIS: ERBB2 mean inhibition at 1 uM [Nanosyn]
Give just the numeric value; % need not be written.

Provide value of inhibition for this record tested with Receptor tyrosine-protein kinase erbB-2 (Homo sapiens) (UniProt P04626): `Cc1ccc(O)cc1Nc1ccnc2cc(-c3ccccn3)ccc12`
11.6

Provide value of inhibition for this record tested with Receptor tyrosine-protein kinase erbB-2 (Homo sapiens) (UniProt P04626): `Nc1ncc(-c2cccc(S(N)(=O)=O)c2)c2scc(-c3ccc(F)c(Cl)c3)c12`
6.32

Provide value of inhibition for this record tested with Receptor tyrosine-protein kinase erbB-2 (Homo sapiens) (UniProt P04626): `O=C(Nc1n[nH]c2cc(-c3ccc(F)cc3)ccc12)C1CC1`
-0.76

Provide value of inhibition for this record tested with Receptor tyrosine-protein kinase erbB-2 (Homo sapiens) (UniProt P04626): `CCCN1CCC(c2ccc(Nc3nc(Nc4cc(F)ccc4C(N)=O)c4cc[nH]c4n3)c(OC)c2)CC1`
12.9

Provide value of inhibition for this record tested with Receptor tyrosine-protein kinase erbB-2 (Homo sapiens) (UniProt P04626): `CC(C)COC(=O)c1ccc2c(c1)/C(=C/Nc1ccc(S(N)(=O)=O)cc1)C(=O)N2`
-0.17

Provide value of inhibition for this record tested with Receptor tyrosine-protein kinase erbB-2 (Homo sapiens) (UniProt P04626): `O=S(=O)(CCNCc1ccc(-c2ccc3ncnc(Nc4ccc(OCc5cccc(F)c5)c(Cl)c4)c3c2)o1)c1ccccc1`
60.5

Provide value of inhibition for this record tested with Receptor tyrosine-protein kinase erbB-2 (Homo sapiens) (UniProt P04626): `CN1CCC(n2cnc(-c3ccc(F)cc3)c2-c2ccnc(N)n2)CC1`
3.61

Provide value of inhibition for this record tested with Receptor tyrosine-protein kinase erbB-2 (Homo sapiens) (UniProt P04626): `CCN1CCC(CC(=O)Nc2n[nH]c3nnc(-c4cccc(F)c4F)cc23)CC1`
3.76

Provide value of inhibition for this record tested with Receptor tyrosine-protein kinase erbB-2 (Homo sapiens) (UniProt P04626): `COC(=O)Nc1nc2ccc(S(=O)(=O)c3ccc(NC(=O)Nc4cc(C(F)(F)F)ccc4F)cc3)cc2[nH]1`
-2.51

Provide value of inhibition for this record tested with Receptor tyrosine-protein kinase erbB-2 (Homo sapiens) (UniProt P04626): `N#Cc1c(NC(=O)CN2CCOCC2)sc2c1CCCC2`
4.83

Provide value of inhibition for this record tested with Receptor tyrosine-protein kinase erbB-2 (Homo sapiens) (UniProt P04626): `CCCN(CCS(C)(=O)=O)Cc1ccc(-c2ccc3ncnc(Nc4ccc(OCc5cccc(F)c5)c(Cl)c4)c3c2)o1`
82.1

Provide value of inhibition for this record tested with Receptor tyrosine-protein kinase erbB-2 (Homo sapiens) (UniProt P04626): `CNC(=O)c1cccc(C#Cc2cncnc2Nc2ccc(OCc3cccc(F)c3)c(Cl)c2)c1`
23.7

Provide value of inhibition for this record tested with Receptor tyrosine-protein kinase erbB-2 (Homo sapiens) (UniProt P04626): `CCn1c(-c2nonc2N)nc2c(C#CC(C)(C)O)ncc(OC3CCNCC3)c21`
3.93

Provide value of inhibition for this record tested with Receptor tyrosine-protein kinase erbB-2 (Homo sapiens) (UniProt P04626): `CCn1c(-c2nonc2N)nc2cnc(Oc3cccc(NC(=O)c4ccc(N(C)C)cc4)c3)cc21`
-0.18

Provide value of inhibition for this record tested with Receptor tyrosine-protein kinase erbB-2 (Homo sapiens) (UniProt P04626): `CNC(=O)c1cc(-c2ccc(F)cc2)cc(-c2ccc(S(=O)(=O)N3CCCC3)cc2)c1N`
7.8

Provide value of inhibition for this record tested with Receptor tyrosine-protein kinase erbB-2 (Homo sapiens) (UniProt P04626): `COc1ccc2[nH]c3c4[nH]c5ccc(OC)cc5c4c4c(c3c2c1)C(=O)NC4=O`
5.83

Provide value of inhibition for this record tested with Receptor tyrosine-protein kinase erbB-2 (Homo sapiens) (UniProt P04626): `Cc1cccc(Nc2ncc(-c3ccccc3)o2)c1`
2.62

Provide value of inhibition for this record tested with Receptor tyrosine-protein kinase erbB-2 (Homo sapiens) (UniProt P04626): `CCNC(=O)O[C@H]1CN[C@H](C#Cc2cc3ncnc(Nc4ccc(OCc5cccc(F)c5)c(Cl)c4)c3s2)C1`
60.4

Provide value of inhibition for this record tested with Receptor tyrosine-protein kinase erbB-2 (Homo sapiens) (UniProt P04626): `COc1ccc(-c2oc3ncnc(N)c3c2-c2ccc(NC(=O)Nc3cc(C(F)(F)F)ccc3F)cc2)cc1`
8.56
